Experiment: LNP size and polydispersity index by Malvern Zetasizer dynamic light scattering (CA HA modFlu mRNA LNPs)
Assay type: physicochemical
Conditions: LNP of the ionizable lipid:cholesterol:DSPC:ALC-0159 about 46.3:42.7:9.4:1.6, N:P about 6:1, CA HA modFlu mRNA; DLS
Method: Lipid nanoparticles were prepared and tested according to the general procedures described in U.S. Pat. No. 9,737,619 (PCT Pub. No. WO2015/199952) and U.S. Pat. No. 10,166,298 (PCT Pub. No. WO 2017/075531) and PCT Pub. No. WO2020/146805. […] Total RNA concentration and encapsulation efficiency was assessed using the RiboGreen RNA quantitation assay. RNA integrity pre and post formulation was monitored by Agilent Fragment Analyzer capillary gel electrophoresis. […]
Rule: Size (nm) of 100 nm or more gives YES; anything lower gives NO.

{"columns": ["compound", "class-label"],
 "data": [
  ["CCCCCCCC(CCCCCCC)C(=O)OCC(COC(=O)C(CCCCCCC)CCCCCCC)N1CCC2(CCN(CCCNc3c(NC)c(=O)c3=O)CC2)CC1", "NO"],
  ["CCCCCCCCC(CCCCCC)C(=O)OCCCC(COC(=O)C(CCCCCC)CCCCCCCC)N1CCC2(CCN(CCCCO)CC2)CC1 (stereo not drawn)", "YES"],
  ["CCCCCCCCC(CCCCCC)C(=O)OCC(COC(=O)C(CCCCCC)CCCCCCCC)N1CCC2(CCN(CCCNS(=O)(=O)CC)CC2)CC1 (stereo not drawn)", "YES"],
  ["CCCCCCCC(CCCCCCC)C(=O)O[C@@H]1CC2(CCN(CCCCO)CC2)C[C@H]1OC(=O)C(CCCCCCC)CCCCCCC (racemic) [Example 51]", "NO"],
  ["CCCCCCCC(CCCCCCC)C(=O)OCC(COC(=O)C(CCCCCCC)CCCCCCC)N1CCC2(CCN(CCCCO)CC2)C1", "YES"],
  ["CCCCCCCCC(CCCCCC)C(=O)OCC(COC(=O)C(CCCCCC)CCCCCCCC)N1CCC2(CCN(CCCNC(=O)C3(C)CC3)CC2)CC1 (stereo not drawn)", "NO"]
]}

###

Assay: LNP size and polydispersity index by Malvern Zetasizer dynamic light scattering (CA HA modFlu mRNA LNPs)
Assay type: physicochemical
Conditions: LNP of the ionizable lipid:cholesterol:DSPC:ALC-0159 about 46.3:42.7:9.4:1.6, N:P about 6:1, CA HA modFlu mRNA; DLS
Description: Lipid nanoparticles were prepared and tested according to the general procedures described in U.S. Pat. No. 9,737,619 (PCT Pub. No. WO2015/199952) and U.S. Pat. No. 10,166,298 (PCT Pub. No. WO 2017/075531) and PCT Pub. No. WO2020/146805. […] Total RNA concentration and encapsulation efficiency was assessed using the RiboGreen RNA quantitation assay. RNA integrity pre and post formulation was monitored by Agilent Fragment Analyzer capillary gel electrophoresis. […]
Reported Size (nm) values for the following compounds.
readout-name: Size (nm)

{"columns": ["compound", "result-units", "measured-value"],
 "data": [
  ["CCCCCCCCCC(CCCCCC)C(=O)O[C@@H]1CC2(CCN(CCCCO)CC2)C[C@H]1OC(=O)C(CCCCCC)CCCCCCCCC (mixture of isomers) [Example 67]", "nm", 89],
  ["CCCCCCCC(CCCCCCC)C(=O)O[C@@H]1CC2(CCN(CCCO)C2)C[C@H]1OC(=O)C(CCCCCCC)CCCCCCC (racemic) [Example 53]", "nm", 89],
  ["CCCCCCCC(CCCCCCC)C(=O)OCC(COC(=O)C(CCCCCCC)CCCCCCC)N1CCC2(CCN(CCCO)CC2)CC1 [Example 10]", "nm", 109],
  ["CCCCCCCCCC(CCCC)C(=O)OCC(COC(=O)C(CCCCCC)CCCCCCCC)N1CCC2(CCN(CCCCO)CC2)CC1 (stereo not shown) [Example 45]", "nm", 117],
  ["CCCCCCCC(CCCCCCC)C(=O)O[C@@H]1CC2(CCN(CCCO)CC2)C[C@H]1OC(=O)C(CCCCCCC)CCCCCCC (racemic) [Example 54]", "nm", 71],
  ["CCCCCCCC(CCCCCCC)C(=O)O[C@@H]1CC2(CCN(CCCCO)CC2)C[C@H]1OC(=O)C(CCCCCCC)CCCCCCC (single isomer, unassigned) [Example 57]", "nm", 74],
  ["CCCCCCCCC(CCCC)C(=O)OCC(COC(=O)C(CCCC)CCCCCCCC)N1CCC2(CCN(CCCCO)CC2)CC1 (stereo not shown) [Example 27]", "nm", 74],
  ["CCCCCCCC(CCCCCCC)C(=O)OCC(COC(=O)C(CCCCCCC)CCCCCCC)N1CCC2(CCN(CCCCO)C2)C1 (stereo not shown) [Example 12]", "nm", 105],
  ["CCCCCCCC(CCCCCCC)OC(=O)CCC(=O)O[C@@H]1CC2(CCN(CCCCO)CC2)C[C@H]1OC(=O)CCC(=O)OC(CCCCCCC)CCCCCCC (racemic) [Example 62]", "nm", 161],
  ["CCCCCCCC(CCCCCCC)C(=O)OCC1(COC(=O)C(CCCCCCC)CCCCCCC)CCC2(CCN(CCCCO)CC2)CC1 [Example 1]", "nm", 78],
  ["CCCCCCC(CCCC)(CCCC)CC(=O)OCC(COC(=O)CC(CCCC)(CCCC)CCCCCC)N1CCC2(CCN(CCCCO)CC2)CC1 [Example 39]", "nm", 134],
  ["CCCCCCCCC(CCCCCC)C(=O)OCC(COC(=O)C(CCCCCCCC)CC1CCC1)N1CCC2(CCN(CCCCO)CC2)CC1 (stereo not shown) [Example 44]", "nm", 119],
  ["CCCCCCCC(CCCCCCC)C(=O)OCC(COC(=O)C(CCCCCCC)CCCCCCC)C1CCC2(CC1)CCN(CCCCO)CC2 [Example 2]", "nm", 92]
]}

Every entry's value here was drawn from patent US20250367129A1.
